Would you mind telling me the reported solution mAb binding, % of PRLR binding of each entry?
Target: T1, human PRLR (Biacore antigen) (human, UniProt P16471 25-234, limits assumed)
T1 construct: The construct injected over captured antibody is not described (a soluble form is likely); also called huPRLR
T1 sequence: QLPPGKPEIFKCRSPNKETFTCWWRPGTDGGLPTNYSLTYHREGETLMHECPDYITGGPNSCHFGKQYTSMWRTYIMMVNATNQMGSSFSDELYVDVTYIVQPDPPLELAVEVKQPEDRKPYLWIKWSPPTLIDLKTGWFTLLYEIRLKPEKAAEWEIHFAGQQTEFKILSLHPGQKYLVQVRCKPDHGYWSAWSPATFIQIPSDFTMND
Assay: SPR simultaneous binding; PRLR held by surface mAb Ab19
Experimental: Running buffer was HBS-EP+ (10 mM Hepes, pH7.4, 150 mM NaCl, 3 mM EDTA, 0.05% surfactant). Assay was performed at 12° C. using Biacore T200 and CM5 sensor chips with anti-human IgG (Pierce) amine-coupled in all 4 flow cells to ˜2000 RU. Separate test mAbs were captured in flowcells 2, 3 & 4 (flowcell 1 was reference, no test mAb). All 4 flowcells were then blocked by injection with isotype control mAb at 50 ug/ml. […]

## Task I have this binder here, Ab48 (antibody, human IgG1, kappa, V domains shown, humanized from Ab8; G1; also called Ab3 HC.1a and Ab3 LC.1a) VH: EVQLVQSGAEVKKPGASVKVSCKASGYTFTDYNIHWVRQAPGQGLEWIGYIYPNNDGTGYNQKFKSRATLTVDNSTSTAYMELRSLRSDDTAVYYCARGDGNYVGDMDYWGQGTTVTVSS VL: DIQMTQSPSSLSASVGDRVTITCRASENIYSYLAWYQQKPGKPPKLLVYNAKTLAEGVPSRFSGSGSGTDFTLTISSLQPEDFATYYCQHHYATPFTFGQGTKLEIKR , and I need its recorded solution mAb binding, % of PRLR binding.
## Result -1%

## Task # repeat for Ab21 (antibody, human IgG1, kappa, V domains shown, humanized from Ab6; G1; also called Ab1 HC.1a and Ab1 LC.2a) VH: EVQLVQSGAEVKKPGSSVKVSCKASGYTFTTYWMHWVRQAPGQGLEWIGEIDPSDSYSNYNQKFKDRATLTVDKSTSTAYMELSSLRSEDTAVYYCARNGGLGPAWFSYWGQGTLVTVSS VL: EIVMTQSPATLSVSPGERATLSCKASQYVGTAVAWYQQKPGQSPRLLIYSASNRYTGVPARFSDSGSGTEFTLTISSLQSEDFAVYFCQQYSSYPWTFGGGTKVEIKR
## Result -1%
